- measurement.target: PKC β II (Homo sapiens, UniProt P05771)
- Construct: purchased CALBIOCHEM
- Sequence (P05771 other isoform, or with tags, fused parts or gaps): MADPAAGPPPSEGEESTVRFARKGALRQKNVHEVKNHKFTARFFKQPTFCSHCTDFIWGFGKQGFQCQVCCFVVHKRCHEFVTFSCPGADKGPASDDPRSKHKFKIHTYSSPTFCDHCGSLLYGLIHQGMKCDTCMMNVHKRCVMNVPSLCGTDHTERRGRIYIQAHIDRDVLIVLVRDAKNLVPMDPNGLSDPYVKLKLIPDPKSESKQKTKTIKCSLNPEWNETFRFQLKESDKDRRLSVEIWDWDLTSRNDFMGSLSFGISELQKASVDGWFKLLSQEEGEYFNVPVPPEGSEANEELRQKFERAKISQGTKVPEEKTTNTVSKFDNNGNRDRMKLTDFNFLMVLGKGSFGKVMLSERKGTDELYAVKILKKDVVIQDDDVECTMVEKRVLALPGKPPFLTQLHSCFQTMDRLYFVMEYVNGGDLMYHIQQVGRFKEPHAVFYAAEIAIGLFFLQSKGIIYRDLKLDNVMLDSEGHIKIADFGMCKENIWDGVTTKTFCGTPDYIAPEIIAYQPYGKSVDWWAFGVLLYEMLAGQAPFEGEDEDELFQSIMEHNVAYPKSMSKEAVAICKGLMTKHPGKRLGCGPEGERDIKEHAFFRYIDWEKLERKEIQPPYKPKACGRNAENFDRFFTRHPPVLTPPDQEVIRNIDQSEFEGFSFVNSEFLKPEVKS
- procedure.summary: PKC enzyme assay (BIOTRAK Protein kinase C enzyme assay system, 32P-ATP phosphorylation of peptide […])
- Format: biochemical
- test.context: Protein Kinase C, Human Recombinant; test substance 1 nM-10 µM; 37°C, 15 minutes; read-out: Inhibition of PKC activity IC50 PKC β II
- Method: The method for determining the PKC inhibitory activity of the compound of the present invention is explained in the following. Inasmuch as PKCβII is present in greater number in intravascular cells than PKCβI, PKCβII was mainly used here to test the enzyme activity. […] The ratio of the radioactivity of the addition of the test substance to the addition of DMSO was determined, and IC50 was calculated from inhibition at each concentration.
endpoint: IC50 (nM)

> print(dat)
                                     smiles  unit.info  reported.result
1  O=C1NC(=O)C(c2cn(CCO)c3ccccc23)=C1Nc1ccccc1         nM               73
2  CCN(C)CCCn1c(C)c(C2=C(Nc3ccccc3)C(=O)NC2=O)c2ccccc21         nM               84
3  O=C1NC(=O)C(c2cn(CCn3ccnc3)c3ccccc23)=C1Nc1ccccc1         nM               81
